# Assay system: EGFR^WT (Homo sapiens, UniProt P00533)
# Construct: Kinases domain of EGFR^L858R/T790M and EGFR^WT were expressed by using the Bac-to-Bac™ baculovirusexpression system; made in house
# Sequence (P00533 712-979 limits assumed): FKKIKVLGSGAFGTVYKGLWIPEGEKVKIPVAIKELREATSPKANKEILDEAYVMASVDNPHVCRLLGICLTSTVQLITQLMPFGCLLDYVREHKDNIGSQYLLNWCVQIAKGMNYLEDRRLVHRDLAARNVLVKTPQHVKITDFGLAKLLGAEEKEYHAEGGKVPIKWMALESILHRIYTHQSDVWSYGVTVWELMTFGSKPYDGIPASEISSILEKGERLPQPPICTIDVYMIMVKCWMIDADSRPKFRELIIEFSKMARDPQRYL
# Test name: ELISA-based EGFR-TK enzymatic activity assay (WT)
# Type: biochemical
# Condition notes: mean ± SD, at least three determinations, read-out: Enzyme Inhibitory Activity (IC50, nM) WT
# Description: In vitro antiproliferation activities of the compounds were examined through using the sulforhodamine B (SRB) colourimetric assay. The enzymatic activity assay was evaluated by using the well-established ELISA-based assay. […] The detailed experiment was performed according to the published literature.
Please provide measured IC50 for the entries that follow.
Give bare numbers, in nM.

C=CC(=O)Nc1cccc(N2C(=O)OC(C)c3cnc(Nc4ccc(N5CCN(C)CC5)cc4OC)nc32)c1 (stereo not shown) [16a]; 38

Enquiry: # get_value(readout='IC50', item= C=CC(=O)Nc1cccc(N2C(=O)OC(C(C)C)c3cnc(Nc4ccc(N5CCN(C)CC5)cc4OC)nc32)c1 (stereo not shown) [16d] )
Return: 183

====

# Assay system: EGFR^L858R/T790M (Homo sapiens, UniProt P00533, L858R/T790M)
# Construct: Kinases domain of EGFR^L858R/T790M and EGFR^WT were expressed by using the Bac-to-Bac™ baculovirusexpression system; made in house
# Sequence (P00533 712-979 T790M/L858R limits assumed): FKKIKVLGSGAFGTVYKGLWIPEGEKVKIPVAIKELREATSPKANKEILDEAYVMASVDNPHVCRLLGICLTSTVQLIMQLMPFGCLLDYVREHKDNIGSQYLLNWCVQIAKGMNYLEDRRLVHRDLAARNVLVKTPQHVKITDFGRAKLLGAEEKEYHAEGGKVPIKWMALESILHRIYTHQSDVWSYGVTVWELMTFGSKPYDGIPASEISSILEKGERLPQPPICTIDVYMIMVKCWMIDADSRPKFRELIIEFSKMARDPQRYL
# Test name: ELISA-based EGFR-TK enzymatic activity assay (dual mutant)
# Assay type: biochemical
# Condition notes: ratio IC50 EGFR^WT : EGFR^L858R/T790M
Parameter: Enzyme Selectivity WT:DM (fold)
Give bare numbers, in fold.

Take a look at these entries with their results.
C=CC(=O)Nc1cccc(N2C(=O)OC(CCC)c3cnc(Nc4ccc(N5CCN(C)CC5)cc4OC)nc32)c1 (stereo not shown) [16c]; 1.4
C=CC(=O)Nc1cccc(N2C(=O)OCc3cnc(Nc4ccc(N5CCN(C)CC5)cc4OC)nc32)c1 [16e]; 3.3

Enquiry: # get_value(readout='Enzyme Selectivity WT:DM', item= C=CC(=O)Nc1cccc(N2C(=O)OC(C(C)C)c3cnc(Nc4ccc(N5CCN(C)CC5)cc4OC)nc32)c1 (stereo not shown) [16d] )
Return: 0.8

====

Please provide measured log10 of IC50 for the entries that follow.
# Assay system: EGFR^L858R/T790M (Homo sapiens, UniProt P00533, L858R/T790M)
# Construct: Kinases domain of EGFR^L858R/T790M and EGFR^WT were expressed by using the Bac-to-Bac™ baculovirusexpression system; made in house
# Test name: ELISA-based EGFR-TK enzymatic activity assay (dual mutant)
# Format: biochemical
# Condition notes: ELISA-based EGFR-TK assay; mean ± SD, at least three determinations; read-out: Enzyme Inhibitory Activity (IC50, nM) L858R/T790M
The base-10 logarithm of IC50, taken with IC50 in nM, is what appears here.

C=CC(=O)Nc1cccc(N2C(=O)OC(C)c3cnc(Nc4ccc(N5CCN(C)CC5)cc4OC)nc32)c1 (centres unmarked) [16a]; 0.73

Go through the list and state log10 of IC50 for each entry.
1. C=CC(=O)Nc1cccc(N2C(=O)OC(CCC)c3cnc(Nc4ccc(N5CCN(C)CC5)cc4OC)nc32)c1 (centres unmarked) [16c]
2. C=CC(=O)Nc1cccc(N2C(=O)OC(C)(C)c3cnc(Nc4ccc(N5CCN(C)CC5)cc4OC)nc32)c1 [20a]

Return:
1. 2.20
2. 0.65

Go through the list and state log10 of IC50 for each entry.
1. C=CC(=O)Nc1cccc(N2C(=O)OCc3cnc(Nc4ccc(N5CCN(C)CC5)cc4OC)nc32)c1 [16e]
2. C=CC(=O)Nc1cccc(N2C(=O)OC(CC)c3cnc(Nc4ccc(N5CCN(C)CC5)cc4OC)nc32)c1 (centres unmarked) [16b]
3. C=CC(=O)Nc1cccc(N2C(=O)OC(C(C)C)c3cnc(Nc4ccc(N5CCN(C)CC5)cc4OC)nc32)c1 (centres unmarked) [16d]

Return:
0.86
0.79
2.34
